Where these numbers come from: patent US20210317092A1

The following compounds are listed with their measured pIC50 values.
target: human Bradykinin B1 receptor (Homo sapiens, UniProt P46663)
Construct: host or cells: CHO-K1
Sequence (P46663 1-353): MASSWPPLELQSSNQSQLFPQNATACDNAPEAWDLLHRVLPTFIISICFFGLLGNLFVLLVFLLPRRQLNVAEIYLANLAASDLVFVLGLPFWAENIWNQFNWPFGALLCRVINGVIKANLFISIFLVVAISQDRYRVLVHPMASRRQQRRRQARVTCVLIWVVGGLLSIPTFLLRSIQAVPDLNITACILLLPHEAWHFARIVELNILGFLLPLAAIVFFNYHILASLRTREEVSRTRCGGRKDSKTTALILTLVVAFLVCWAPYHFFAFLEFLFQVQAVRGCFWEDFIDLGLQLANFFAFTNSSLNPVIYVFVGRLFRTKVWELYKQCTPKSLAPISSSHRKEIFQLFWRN
measurement_notes: Calcium flux Assay (FLIPR) with recombinant CHO-K1 cells expressing human Bradykinin B1 receptor, in presence (hB1 IC50) or absence (hB1 free IC50) of 0.1% BSA
Type: cell-based
conditions: in absence of 0.1% BSA, read-out: hB1 free IC50
pIC50: −log10 of the molar value.
readout_name: pIC50

{"item_smiles": "COc1ccc(-c2ccc(NC(=O)C3(c4cc(F)ccc4C)CC3)cc2-c2nnn[nH]2)cc1OC", "readout_name": "pIC50", "measured_value": 6.15}
{"item_smiles": "O=C(Nc1ccc(-n2cc(C(F)(F)F)cn2)c(-c2nnn[nH]2)c1)C1(c2cccc(Cl)c2)CC1", "readout_name": "pIC50", "measured_value": 6.23}
{"item_smiles": "COc1ccc(-c2ccc(NC(=O)C3(c4ccc(C(F)(F)F)cc4F)CC3)cc2-c2nnn[nH]2)cc1OC", "readout_name": "pIC50", "measured_value": 7.53}
{"item_smiles": "COc1cncc(-c2ccc(NC(=O)C3(c4cccc(Cl)c4)CC3)cc2-c2nnn[nH]2)c1", "readout_name": "pIC50", "measured_value": 8.44}
